experimental.conditions: in THF, 297.7 K
assay.metric: solubility (mole fraction)
Write the value as a bare number.

If you can, please state the reported solubility (mole fraction) value of CCCCC1=NC2(CCCC2)C(=O)N1Cc1ccc(-c2ccccc2-c2nn[nH]n2)cc1 .
0.00277

###

experimental.conditions: in ethanol, 318.5 K
assay.metric: solubility (mole fraction)
Write the value as a bare number.

If you can, please state the reported solubility (mole fraction) value of CCCCC1=NC2(CCCC2)C(=O)N1Cc1ccc(-c2ccccc2-c2nn[nH]n2)cc1 .
0.00263

###

experimental.conditions: in THF, 322.75 K
assay.metric: solubility (mole fraction)

If you can, please state the reported solubility (mole fraction) value of CCCCC1=NC2(CCCC2)C(=O)N1Cc1ccc(-c2ccccc2-c2nn[nH]n2)cc1 .
0.00687

###

experimental.conditions: in ethanol, 308.5 K
assay.metric: solubility (mole fraction)
Write the value as a bare number.

If you can, please state the reported solubility (mole fraction) value of CCCCC1=NC2(CCCC2)C(=O)N1Cc1ccc(-c2ccccc2-c2nn[nH]n2)cc1 .
0.00159

###

experimental.conditions: in THF, 318.35 K
assay.metric: solubility (mole fraction)
Write the value as a bare number.

If you can, please state the reported solubility (mole fraction) value of CCCCC1=NC2(CCCC2)C(=O)N1Cc1ccc(-c2ccccc2-c2nn[nH]n2)cc1 .
0.00581

###

experimental.conditions: in ethanol, 313.3 K
assay.metric: solubility (mole fraction)
Write the value as a bare number.

If you can, please state the reported solubility (mole fraction) value of CCCCC1=NC2(CCCC2)C(=O)N1Cc1ccc(-c2ccccc2-c2nn[nH]n2)cc1 .
0.0021

###

experimental.conditions: in THF, 282.85 K
assay.metric: solubility (mole fraction)

If you can, please state the reported solubility (mole fraction) value of CCCCC1=NC2(CCCC2)C(=O)N1Cc1ccc(-c2ccccc2-c2nn[nH]n2)cc1 .
0.00152

###

experimental.conditions: in acetone, 288.35 K
assay.metric: solubility (mole fraction)
Write the value as a bare number.

If you can, please state the reported solubility (mole fraction) value of CCCCC1=NC2(CCCC2)C(=O)N1Cc1ccc(-c2ccccc2-c2nn[nH]n2)cc1 .
0.000444

###

experimental.conditions: in chloroform, 277.7 K
assay.metric: solubility (mole fraction)
Write the value as a bare number.

If you can, please state the reported solubility (mole fraction) value of CCCCC1=NC2(CCCC2)C(=O)N1Cc1ccc(-c2ccccc2-c2nn[nH]n2)cc1 .
0.0012

###

experimental.conditions: in 1,4-dioxane, 303.65 K
assay.metric: solubility (mole fraction)

If you can, please state the reported solubility (mole fraction) value of CCCCC1=NC2(CCCC2)C(=O)N1Cc1ccc(-c2ccccc2-c2nn[nH]n2)cc1 .
0.00112

###

experimental.conditions: in ethanol, 278.6 K
assay.metric: solubility (mole fraction)
Write the value as a bare number.

If you can, please state the reported solubility (mole fraction) value of CCCCC1=NC2(CCCC2)C(=O)N1Cc1ccc(-c2ccccc2-c2nn[nH]n2)cc1 .
0.000333

###

experimental.conditions: in acetone, 323.1 K
assay.metric: solubility (mole fraction)
Write the value as a bare number.

If you can, please state the reported solubility (mole fraction) value of CCCCC1=NC2(CCCC2)C(=O)N1Cc1ccc(-c2ccccc2-c2nn[nH]n2)cc1 .
0.00192

###

experimental.conditions: in chloroform, 302.85 K
assay.metric: solubility (mole fraction)
Write the value as a bare number.

If you can, please state the reported solubility (mole fraction) value of CCCCC1=NC2(CCCC2)C(=O)N1Cc1ccc(-c2ccccc2-c2nn[nH]n2)cc1 .
0.00201

###

experimental.conditions: in 1,4-dioxane, 298 K
assay.metric: solubility (mole fraction)
Write the value as a bare number.

If you can, please state the reported solubility (mole fraction) value of CCCCC1=NC2(CCCC2)C(=O)N1Cc1ccc(-c2ccccc2-c2nn[nH]n2)cc1 .
0.000832

###

experimental.conditions: in chloroform, 283.3 K
assay.metric: solubility (mole fraction)

If you can, please state the reported solubility (mole fraction) value of CCCCC1=NC2(CCCC2)C(=O)N1Cc1ccc(-c2ccccc2-c2nn[nH]n2)cc1 .
0.00131

###

experimental.conditions: in 1,4-dioxane, 312.9 K
assay.metric: solubility (mole fraction)

If you can, please state the reported solubility (mole fraction) value of CCCCC1=NC2(CCCC2)C(=O)N1Cc1ccc(-c2ccccc2-c2nn[nH]n2)cc1 .
0.00183

###

experimental.conditions: in chloroform, 323 K
assay.metric: solubility (mole fraction)
Write the value as a bare number.

If you can, please state the reported solubility (mole fraction) value of CCCCC1=NC2(CCCC2)C(=O)N1Cc1ccc(-c2ccccc2-c2nn[nH]n2)cc1 .
0.00335

###

experimental.conditions: in 1,4-dioxane, 318.05 K
assay.metric: solubility (mole fraction)
Write the value as a bare number.

If you can, please state the reported solubility (mole fraction) value of CCCCC1=NC2(CCCC2)C(=O)N1Cc1ccc(-c2ccccc2-c2nn[nH]n2)cc1 .
0.00227

###

experimental.conditions: in THF, 303.15 K
assay.metric: solubility (mole fraction)
Write the value as a bare number.

If you can, please state the reported solubility (mole fraction) value of CCCCC1=NC2(CCCC2)C(=O)N1Cc1ccc(-c2ccccc2-c2nn[nH]n2)cc1 .
0.00332

###

experimental.conditions: in ethanol, 323.6 K
assay.metric: solubility (mole fraction)
Write the value as a bare number.

If you can, please state the reported solubility (mole fraction) value of CCCCC1=NC2(CCCC2)C(=O)N1Cc1ccc(-c2ccccc2-c2nn[nH]n2)cc1 .
0.00341

###

experimental.conditions: in THF, 308.05 K
assay.metric: solubility (mole fraction)

If you can, please state the reported solubility (mole fraction) value of CCCCC1=NC2(CCCC2)C(=O)N1Cc1ccc(-c2ccccc2-c2nn[nH]n2)cc1 .
0.00396

###

experimental.conditions: in THF, 288.1 K
assay.metric: solubility (mole fraction)

If you can, please state the reported solubility (mole fraction) value of CCCCC1=NC2(CCCC2)C(=O)N1Cc1ccc(-c2ccccc2-c2nn[nH]n2)cc1 .
0.00184

###

experimental.conditions: in chloroform, 307.8 K
assay.metric: solubility (mole fraction)
Write the value as a bare number.

If you can, please state the reported solubility (mole fraction) value of CCCCC1=NC2(CCCC2)C(=O)N1Cc1ccc(-c2ccccc2-c2nn[nH]n2)cc1 .
0.00225

###

experimental.conditions: in 1,4-dioxane, 287.9 K
assay.metric: solubility (mole fraction)
Write the value as a bare number.

If you can, please state the reported solubility (mole fraction) value of CCCCC1=NC2(CCCC2)C(=O)N1Cc1ccc(-c2ccccc2-c2nn[nH]n2)cc1 .
0.000466

###

experimental.conditions: in THF, 312.7 K
assay.metric: solubility (mole fraction)
Write the value as a bare number.

If you can, please state the reported solubility (mole fraction) value of CCCCC1=NC2(CCCC2)C(=O)N1Cc1ccc(-c2ccccc2-c2nn[nH]n2)cc1 .
0.00479

###

experimental.conditions: in THF, 292.95 K
assay.metric: solubility (mole fraction)
Write the value as a bare number.

If you can, please state the reported solubility (mole fraction) value of CCCCC1=NC2(CCCC2)C(=O)N1Cc1ccc(-c2ccccc2-c2nn[nH]n2)cc1 .
0.00229

###

experimental.conditions: in acetone, 293.6 K
assay.metric: solubility (mole fraction)
Write the value as a bare number.

If you can, please state the reported solubility (mole fraction) value of CCCCC1=NC2(CCCC2)C(=O)N1Cc1ccc(-c2ccccc2-c2nn[nH]n2)cc1 .
0.00053

###

experimental.conditions: in ethanol, 303.05 K
assay.metric: solubility (mole fraction)
Write the value as a bare number.

If you can, please state the reported solubility (mole fraction) value of CCCCC1=NC2(CCCC2)C(=O)N1Cc1ccc(-c2ccccc2-c2nn[nH]n2)cc1 .
0.00122

###

experimental.conditions: in chloroform, 292.7 K
assay.metric: solubility (mole fraction)

If you can, please state the reported solubility (mole fraction) value of CCCCC1=NC2(CCCC2)C(=O)N1Cc1ccc(-c2ccccc2-c2nn[nH]n2)cc1 .
0.00161

###

experimental.conditions: in acetone, 278.35 K
assay.metric: solubility (mole fraction)
Write the value as a bare number.

If you can, please state the reported solubility (mole fraction) value of CCCCC1=NC2(CCCC2)C(=O)N1Cc1ccc(-c2ccccc2-c2nn[nH]n2)cc1 .
0.000284

Every entry's value here was drawn from BigSolDB 2.1.
